# Target Entity: Mu-type opioid receptor (Homo sapiens)
# Sequence (P35372 whole entry): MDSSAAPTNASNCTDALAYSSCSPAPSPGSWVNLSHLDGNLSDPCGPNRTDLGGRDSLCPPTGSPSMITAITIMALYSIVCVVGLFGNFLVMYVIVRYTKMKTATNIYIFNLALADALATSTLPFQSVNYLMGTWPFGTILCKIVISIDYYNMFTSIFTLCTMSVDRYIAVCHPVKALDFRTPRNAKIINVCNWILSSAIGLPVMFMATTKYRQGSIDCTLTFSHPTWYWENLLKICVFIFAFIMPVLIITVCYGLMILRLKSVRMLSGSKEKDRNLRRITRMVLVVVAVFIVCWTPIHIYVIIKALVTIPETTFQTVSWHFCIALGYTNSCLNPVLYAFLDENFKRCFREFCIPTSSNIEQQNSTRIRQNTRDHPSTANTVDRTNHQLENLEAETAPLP

>  <Item Smiles>
CN(C)[C@H]1CCCC[C@@H]1OC/C=C/c1ccccc1

>  <Value Modifier>
=

>  <Ki (µM)>
4.2

$$$$
>  <Item Smiles>
CN(CCc1ccccc1)[C@H]1CCCC[C@@H]1O

>  <Value Modifier>
>

>  <Ki (µM)>
10

$$$$
>  <Item Smiles>
CN(CCc1ccccc1)[C@H]1CCCC[C@@H]1OCCCc1ccccc1

>  <Value Modifier>
=

>  <Ki (µM)>
1.6

$$$$

====

Ki values recorded for Kappa-type opioid receptor (Homo sapiens, UniProt P41145)

>  <Item Smiles>
CN(CCc1ccccc1)[C@H]1CCCC[C@@H]1O

>  <Ki>
> 10 µM

$$$$
>  <Item Smiles>
CN(CCCc1ccccc1)[C@H]1CCCC[C@@H]1OCCCc1ccccc1

>  <Ki>
2.2 µM

$$$$
>  <Item Smiles>
CN(CCCc1ccccc1)[C@H]1CCCC[C@@H]1O

>  <Ki>
> 10 µM

$$$$
